Tested on: wild mustard
Experiment: Test Example 1, foliar treatment, herbicidal activity
Assay type: in vivo, Brassica kaber
Conditions: 1.25 g/are, 3 weeks
parameter.measured: Herbicidal activity, Wild mustard

# smiles.representation, data.value
records = [
    ("COc1cc(N2C(=O)C3=C(CCCC3)C2=O)c(F)cc1Cl", "5 (0)"),
    ("CCCOc1cc(N2C(=O)C3=C(CCCC3)C2=O)c(F)cc1Cl", "5 (0)"),
    ("CCCCOc1cc(N2C(=O)C3=C(CCCC3)C2=O)c(F)cc1Cl", "4 (1-10)"),
]

###

Test system: velvetleaf
Assay: Test Example 3, soil surface spraying, herbicidal activity; note: ranges in brackets are in %
Type: in vivo, Abutilon theophrasti
Conditions: 5 g/are, 20 days
parameter.measured: Herbicidal activity, Velvetleaf

# compound, experimental.system, data.value
measured = [
    ("CC(C)Oc1cc(N2C(=O)C3=C(CCCC3)C2=O)c(Cl)cc1Cl [B, reference compound]", "velvetleaf", "1 (41-60)"),
    ("CCCCOc1cc(N2C(=O)C3=C(CCCC3)C2=O)c(F)cc1Cl", "velvetleaf", "5 (0)"),
    ("CCOc1cc(N2C(=O)C3=C(CCCC3)C2=O)c(F)cc1Cl", "velvetleaf", "5 (0)"),
    ("O=C1C2=C(CCCC2)C(=O)N1c1ccc(Cl)cc1F [A, reference compound]", "velvetleaf", "3 (11-20)"),
    ("CCC(C)Oc1cc(N2C(=O)C3=C(CCCC3)C2=O)c(F)cc1Cl (stereo not shown)", "velvetleaf", "5 (0)"),
    ("CC(C)COc1cc(N2C(=O)C3=C(CCCC3)C2=O)c(F)cc1Cl", "velvetleaf", "5 (0)"),
    ("CCCOc1cc(N2C(=O)C3=C(CCCC3)C2=O)c(F)cc1Cl", "velvetleaf", "5 (0)"),
]
